- protocol_details: Evaluation of dissolution stability (content change on storage in dissolved state)
- Format: physicochemical
- recorded_conditions: 1 mg/1 ml dissolved state, 40° C. and RH 75%, day 1
*1 amine or outer side, *2 acyl side, *3 side chain or, on linkers, in order; H or OH if unused. Where no end group is shown, it is not given here. [ ]: non-standard residue; d: D form. Pro(trans-4-NH2) = O=C([C@@H]1C[C@@H](N[*:3])CN1[*:1])[*:2]; Hyp = O=C(O)[C@@H]1C[C@@H](O)CN1; dHyp = O=C(O)[C@H]1C[C@H](O)CN1
Rule: Day 1 content (%) below 90% gives True. Equal to or above 90% gives False.

Solved cases below.
In [3]: df
Out[3]:
                                  substance  qualitative_label
0  Hyp-Gly-Gln-Asu-Gly (isopropyl ester) [Example 109]               True
1  trans-4NH2-Pro-Gly-Gln-Asp-Gly-Leu-Ala ([Pro(trans-4-NH2)]GQDGLA) [Example 52]               True
2  Hyp-Gly-Gln-His-Gly-Leu-Ala ([Hyp]GQHGLA) [Example 80]              False
3  Hyp-Gly-Gln-D Asp-Gly ([Hyp]GQ[dD]G) [Example 59]              False
4                     QDGLAGPK [Example 16]               True
5                      LGLAGPK [Example 20]              False
6  Hyp-Gly-Gln-Ala-Val-Leu ([Hyp]GQAVL) [Example 124]              False
7  Hyp-Gly-Gln-Ala-Val ([Hyp]GQAV) [Example 119]              False

Bench note: check whether D Hyp-Gly-Gln-Asp-Gly-Leu ([dHyp]GQDGL) [Example 45] shows Day 1 content (%) below 90%
True

Bench note: check whether Hyp-Gly-Gln-Asp-Gly-Val-Ala ([Hyp]GQDGVA) [Example 72] shows Day 1 content (%) below 90%
False

Bench note: check whether QDGLAG [Example 30] shows Day 1 content (%) below 90%
False

Bench note: check whether Hyp-Gly-Gln-Leu-Val-Leu ([Hyp]GQLVL) [Example 99] shows Day 1 content (%) below 90%
False

====

Field: Initial content (%). Provide a value for each of the substances that follow.
- protocol_details: Evaluation of dissolution stability (content change on storage in dissolved state)
- Type: physicochemical
- recorded_conditions: 1 mg/1 ml dissolved state, 40° C. and RH 75%, initial
Primed or numbered codes have the meaning given here. Where no end group is shown, it is not given here. [ ]: non-standard residue; d: D form. Pro(4,4-Me2) = CC1(C)CN[C@H](C(=O)O)C1; Asu′ = aspartimide (aminosuccinimide); Hyp = O=C(O)[C@@H]1C[C@@H](O)CN1; dHyp = O=C(O)[C@H]1C[C@H](O)CN1
The number alone won't do; follow it with the unit.

Observe how each entry below is paired with its result.
>>> df
                                  substance           value_type  result
0  4,4-dimethyl Pro-Gly-Gln-Asp-Gly-Leu ([Pro(4,4-Me2)]GQDGL) [Example 56]  Initial content (%)  90.94%
1  Hyp-Gly-Gln-Glu-Gly ([Hyp]GQEG) [Example 67]  Initial content (%)  98.36%
2  Hyp-Gly-Gln-Asu-Gly-Leu ([Hyp]GQ[Asu′]GL) [Example 101]  Initial content (%)  88.72%
3  4,4-dimethyl Pro-Gly-Gln-Asp-Gly ([Pro(4,4-Me2)]GQDG) [Example 55]  Initial content (%)  97.82%
4  Hyp-Gly-Gln-Asp-Gly-Leu ([Hyp]GQDGL) [Example 11]  Initial content (%)  98.96%
5  D Hyp-Gly-Gln-Asp-Gly-Leu ([dHyp]GQDGL) [Example 45]  Initial content (%)  94.45%
6  Hyp-Gly-Gln-Leu-Leu-Leu-Ala ([Hyp]GQLLLA) [Example 96]  Initial content (%)  98.07%
7  Hyp-Gly-Gln-Glu-Leu-Leu-Ala ([Hyp]GQELLA) [Example 86]  Initial content (%)  98.16%

The reported Initial content (%) of the substance Hyp-Gly-Gln-Ala-Val-Leu ([Hyp]GQAVL) [Example 124] was 99.40%

// provenance: patent US12428446B2
